Molecular target: serotoninergic 5-HT2A receptor (Homo sapiens, UniProt P28223)
Assay: Binding assay 5-HT2A (h), [3H]ketanserin, HEK-293 cells
Set-up: expressed in transfected cells; host or cells: HEK-293 cells
Settings: read-out: 5-HT2A
Record form. Attribute: inhibition at 1 µM. Fill in for each entry.
Answers are plain numbers, in %.

Some solved entries appear below for comparison.
N#Cc1ccc(S(=O)(=O)NCCCN2CCC(c3noc4cc(F)ccc34)CC2)cc1 [Compound 337] :: 102
O=S(=O)(NCCCN1CCN(c2nsc3ccccc23)CC1)c1ccc(Br)cc1 [Compound 252] :: 101
O=S(=O)(NCCCN1CCN(c2nsc3ccccc23)CC1)c1cc2ccc(Cl)cc2s1 [Compound 264] :: 105

[in] Respond only with inhibition at 1 µM recorded for Cc1c(S(=O)(=O)NCCCCN2CCN(c3cccc4[nH]ccc34)CC2)sc2ccc(F)cc12 [Compound 364]
[out] 89

###

Tested on: adrenergic α1 receptor
Experiment: Binding assay α1 (non-selective), [3H]prazosin, rat cerebral cortex
Conditions: percent inhibition of control specific binding; compounds tested at 1×10^−6 M
REPORTED METRIC: α1 [%]
Kindly write the number and append the unit.

COc1cccc(S(=O)(=O)NCCCCN2CCN(c3cccc4c3OCCO4)CC2)c1 :: 92%

Batch lookup, α1 [%] per entry.
1. Cc1c(S(=O)(=O)NCCCCN2CCN(c3cccc4[nH]c(=O)[nH]c34)CC2)sc2ccc(Cl)cc12
2. CC(C)(C)c1ccc(S(=O)(=O)NCCCCN2CCC(c3noc4cc(F)ccc34)CC2)cc1
3. O=S(=O)(NCCCCN1CCN(c2cccc3[nH]ccc23)CC1)c1ccc(F)cc1

[out]
1. 47%
2. 96%
3. 97%

###

Target: dopaminergic D3 receptor (Homo sapiens)
Sequence (P35462 whole entry): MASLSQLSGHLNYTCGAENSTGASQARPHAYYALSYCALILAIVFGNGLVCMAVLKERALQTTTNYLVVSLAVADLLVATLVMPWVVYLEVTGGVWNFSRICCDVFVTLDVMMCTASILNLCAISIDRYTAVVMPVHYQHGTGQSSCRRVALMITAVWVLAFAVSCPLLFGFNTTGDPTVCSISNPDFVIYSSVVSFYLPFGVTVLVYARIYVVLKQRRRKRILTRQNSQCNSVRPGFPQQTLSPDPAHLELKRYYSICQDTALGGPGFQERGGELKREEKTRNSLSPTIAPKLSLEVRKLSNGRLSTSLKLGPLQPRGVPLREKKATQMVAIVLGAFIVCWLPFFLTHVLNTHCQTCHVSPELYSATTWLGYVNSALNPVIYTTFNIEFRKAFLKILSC
Assay: Binding assay D3 (h), [3H]methyl-spiperone, CHO cells
Set-up: expressed in transfected cells; host or cells: CHO cells
Settings: read-out: D3 [%]
Record form. Attribute: inhibition at 1 µM. Fill in for each entry.
Answers are plain numbers, in %.

O=S(=O)(NCCN1CCC(c2noc3cc(F)ccc23)CC1)c1ccc2ccccc2c1 :: 98

Batch lookup, inhibition at 1 µM per entry.
1. O=c1[nH]c2ccc(S(=O)(=O)NCCCCN3CCN(c4cccc5c4OCCO5)CC3)cc2o1
2. O=S(=O)(NCCCCN1CCN(c2cccc3c2OCCO3)CC1)c1ccc2c(c1)OCO2
3. Cc1c(S(=O)(=O)NCCCN2CCC(c3noc4cc(F)ccc34)CC2)sc2ccc(F)cc12
4. O=S(=O)(NCCCCN1CCC(c2noc3cc(F)ccc23)CC1)c1ccc2c(c1)OCO2
5. O=S(=O)(NCCCN1CCN(c2nsc3ccccc23)CC1)c1cccc(O)c1
6. O=S(=O)(NCCCN1CCN(c2nsc3ccccc23)CC1)c1cccc(F)c1
7. O=S(=O)(NCCCCN1CCN(c2nsc3ccccc23)CC1)c1ccc2c(c1)OCO2

[out]
99
92
103
99
98
95
97

Batch lookup, inhibition at 1 µM per entry.
1. O=S(=O)(NCCCN1CCC(c2noc3cc(F)ccc23)CC1)c1cc2ccccc2s1
2. O=S(=O)(NCCCCN1CCN(c2noc3ccccc23)CC1)c1ccc2ccccc2c1

[out]
1: 100; 2: 97

Batch lookup, inhibition at 1 µM per entry.
1. O=S(=O)(NCCCN1CCC(c2noc3cc(F)ccc23)CC1)c1ccc2c(c1)CCO2
2. O=S(=O)(NCCCN1CCC(c2noc3cc(F)ccc23)CC1)c1ccc(-c2ccccc2)cc1
3. Cc1cccc(S(=O)(=O)NCCCN2CCN(c3nsc4ccccc34)CC2)c1
4. O=S(=O)(NCCCCN1CCN(c2nsc3ccccc23)CC1)c1ccc(C(F)(F)F)cc1
5. O=S(=O)(NCCCN1CCC(c2noc3cc(F)ccc23)CC1)c1ccc(Cl)s1

[out]
1: 95; 2: 98; 3: 97; 4: 91; 5: 98

Batch lookup, inhibition at 1 µM per entry.
1. O=S(=O)(NCCCCN1CCN(c2nsc3ccccc23)CC1)c1ccc(F)c(Cl)c1
2. Cc1[nH]c2ccc(Cl)cc2c1C1=CCN(CCNS(=O)(=O)c2ccc(F)cc2)CC1

[out]
1: 103; 2: 34

###

Biological target: serotoninergic 5-HT7 receptor (Homo sapiens)
Sequence (P34969 whole entry): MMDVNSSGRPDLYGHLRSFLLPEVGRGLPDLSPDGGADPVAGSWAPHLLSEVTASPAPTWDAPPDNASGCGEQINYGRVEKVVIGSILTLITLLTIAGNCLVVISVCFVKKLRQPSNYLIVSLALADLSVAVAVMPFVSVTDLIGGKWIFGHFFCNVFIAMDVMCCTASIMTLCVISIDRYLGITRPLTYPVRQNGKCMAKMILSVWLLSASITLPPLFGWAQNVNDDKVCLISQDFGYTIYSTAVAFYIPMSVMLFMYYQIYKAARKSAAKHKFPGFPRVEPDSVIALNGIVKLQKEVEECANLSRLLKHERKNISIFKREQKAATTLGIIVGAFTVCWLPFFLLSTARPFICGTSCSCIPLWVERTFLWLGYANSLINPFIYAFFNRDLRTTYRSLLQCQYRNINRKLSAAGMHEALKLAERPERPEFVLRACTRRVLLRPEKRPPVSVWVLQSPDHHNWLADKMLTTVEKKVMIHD
Assay: Binding assay 5-HT7 (h), [3H]LSD, CHO cells
Set-up: expressed in transfected cells; host or cells: CHO cells
Details: read-out: 5-HT7
REPORTED METRIC: inhibition at 1 µM
Kindly write the number and append the unit.

O=S(=O)(NCCCN1CCN(c2cccc3c2OCCO3)CC1)c1cccc(Cl)c1 :: 89%
O=S(=O)(NCCCCN1CCN(c2cccc3c2OCCO3)CC1)c1cccc2ccccc12 :: 99%
O=S(=O)(NCCCN1CCN(c2nsc3ccccc23)CC1)c1cccc(F)c1 :: 101%
Cn1ccc2c(S(=O)(=O)NCCCCN3CCC(c4noc5cc(F)ccc45)CC3)cccc21 :: 89%
O=C1COc2c(cccc2N2CCN(CCCCNS(=O)(=O)c3ccc(C(F)(F)F)cc3)CC2)N1 :: 83%
O=S(=O)(NCCCN1CCN(c2cccc3c2OCCO3)CC1)c1cccc2ccccc12 :: 93%
Cn1ccc2c(S(=O)(=O)NCCCN3CCC(c4noc5cc(F)ccc45)CC3)cccc21 :: 92%

[in] Respond only with inhibition at 1 µM recorded for `Cc1[nH]c2ccc(Cl)cc2c1C1=CCN(CCCCNS(=O)(=O)c2cccc(O)c2)CC1`
[out] 7%

###

Record form. Attribute: inhibition at 1 µM. Fill in for each entry.
Molecular target: dopaminergic D2 receptor (Homo sapiens)
Sequence (P14416 1-414 isoform P14416-2): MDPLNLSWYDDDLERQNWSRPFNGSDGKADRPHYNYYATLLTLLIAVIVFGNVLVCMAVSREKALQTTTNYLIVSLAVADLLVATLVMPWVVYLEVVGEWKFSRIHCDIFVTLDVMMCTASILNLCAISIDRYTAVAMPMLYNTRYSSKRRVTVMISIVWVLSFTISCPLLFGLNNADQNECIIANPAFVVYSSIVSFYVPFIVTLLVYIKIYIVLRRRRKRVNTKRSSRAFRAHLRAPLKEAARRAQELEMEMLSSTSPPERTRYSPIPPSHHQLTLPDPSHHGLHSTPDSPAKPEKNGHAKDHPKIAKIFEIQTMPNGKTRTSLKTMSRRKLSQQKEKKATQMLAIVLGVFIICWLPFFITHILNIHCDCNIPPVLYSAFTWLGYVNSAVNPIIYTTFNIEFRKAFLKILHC
Test: Binding assay D2S (h), [3H]methyl-spiperone, HEK-293 cells
Design: expressed in transfected cells; host or cells: HEK-293 cells
Details: read-out: D2 [%]
Answers are plain numbers, in %.

O=C1COc2c(cccc2N2CCN(CCCCNS(=O)(=O)c3cccc(Cl)c3)CC2)N1 :: 82
O=S(=O)(NCCCN1CCC(c2noc3cc(F)ccc23)CC1)c1cc2ccc(Cl)cc2s1 :: 103

Batch lookup, inhibition at 1 µM per entry.
1. O=S(=O)(NCCCN1CCN(c2nsc3ccccc23)CC1)c1ccc2ccccc2c1
2. O=S(=O)(NCCCN1CCC(c2noc3cc(F)ccc23)CC1)c1ccc(F)cc1
3. Cc1[nH]c2ccc(Cl)cc2c1C1=CCN(CCCCNS(=O)(=O)c2cccc(Cl)c2)CC1
4. O=S(=O)(NCCCCN1CCN(c2nsc3ccccc23)CC1)c1ccc(F)cc1
5. O=c1[nH]c2cccc(N3CCN(CCCNS(=O)(=O)c4ccc(Cl)cc4)CC3)c2[nH]1
6. Cc1c(S(=O)(=O)NCCCN2CCN(c3nsc4ccccc34)CC2)sc2ccc(F)cc12

[out]
[96, 109, 65, 77, 91, 101]

###

Target: serotoninergic 5-HT6 receptor (Homo sapiens, UniProt P50406)
Sequence (P50406 whole entry): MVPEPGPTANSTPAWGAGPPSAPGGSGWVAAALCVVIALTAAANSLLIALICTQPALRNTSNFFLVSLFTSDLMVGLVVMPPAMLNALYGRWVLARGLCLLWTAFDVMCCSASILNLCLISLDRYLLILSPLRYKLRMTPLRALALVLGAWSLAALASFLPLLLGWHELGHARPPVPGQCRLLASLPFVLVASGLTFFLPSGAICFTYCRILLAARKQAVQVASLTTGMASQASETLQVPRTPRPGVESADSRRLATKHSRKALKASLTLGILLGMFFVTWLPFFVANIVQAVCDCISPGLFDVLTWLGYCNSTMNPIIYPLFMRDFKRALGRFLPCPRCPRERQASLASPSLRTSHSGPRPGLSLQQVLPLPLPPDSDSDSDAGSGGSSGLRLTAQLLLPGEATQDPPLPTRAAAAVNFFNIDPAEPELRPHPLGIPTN
Assay: Binding assay 5-HT6 (h), [3H]LSD, CHO cells
Set-up: expressed in transfected cells; host or cells: CHO cells
Settings: read-out: 5-HT6
Protocol: The specific ligand binding to the receptors is defined as the difference between the total binding and the nonspecific binding determined in the presence of an excess of so unlabelled ligand. The specific Ligand binding to the receptor is defined as the difference between total and non-specific binding determined in the presence of an excess of unlabelled ligand. The compounds were tested at a concentration of 1×10^−6 M, and scintillation counting was the method of detection of ligand binding.
Label Condition met when inhibition at 1 µM is at or above 80%; otherwise label Condition not met.

[in] Does the reported inhibition at 1 µM for `CC(C)(C)c1ccc(S(=O)(=O)NCCCCN2CCC(c3noc4cc(F)ccc34)CC2)cc1` fall at or above the 80% mark?
[out] Condition met

[in] Does the reported inhibition at 1 µM for `O=S(=O)(NCCCCN1CCN(c2nsc3ccccc23)CC1)c1cccs1` fall at or above the 80% mark?
[out] Condition not met

[in] Does the reported inhibition at 1 µM for `Cc1[nH]c2ccc(Cl)cc2c1C1=CCN(CCCNS(=O)(=O)c2ccc(F)cc2)CC1` fall at or above the 80% mark?
[out] Condition met

[in] Does the reported inhibition at 1 µM for `O=S(=O)(NCCCN1CCN(c2nsc3ccccc23)CC1)c1csc2ccccc12` fall at or above the 80% mark?
[out] Condition met

[in] Does the reported inhibition at 1 µM for `Cc1[nH]c2ccc(Cl)cc2c1C1=CCN(CCNS(=O)(=O)c2cccc(O)c2)CC1` fall at or above the 80% mark?
[out] Condition met

[in] Does the reported inhibition at 1 µM for `O=S(=O)(NCCCCN1CCN(c2cccc3[nH]ccc23)CC1)c1cc2ccccc2s1` fall at or above the 80% mark?
[out] Condition not met

[in] Does the reported inhibition at 1 µM for `O=S(=O)(NCCCCN1CCC(c2noc3cc(F)ccc23)CC1)c1cccc2scnc12` fall at or above the 80% mark?
[out] Condition not met

[in] Does the reported inhibition at 1 µM for `O=S(=O)(NCCCCN1CCC(c2noc3cc(F)ccc23)CC1)c1cccs1` fall at or above the 80% mark?
[out] Condition not met
